- test-protocol: Fraction unbound in human plasma after 4.5 hrs by rapid equilibrium dialysis method
- Type: ADME, cell-free
So basically, if Fu comes in under 0.7% it's label 1, and if it's 0.7% or more it's label 0.

CCc1cc(CC)n2nc(-c3ccc(OC)cc3)c(CC(=O)N(C)C(C)(C)C)c2n1	label 0
CCCCN(CCCC)C(=O)Cc1c(-c2ccc(OC)cc2)nn2c(CC)cc(CC)nc12	label 1

Input: Decide: Fu of CCc1cc(CC)n2nc(-c3ccc(OC)cc3)c(CC(=O)N(CC)CC)c2n1 strictly below 0.7%?
Output: label 0

Input: Now this one: CCc1cc(CC)n2nc(-c3ccc(OC)cc3)c(CC(=O)N(CC)c3ccccc3)c2n1
Output: label 1

Input: Here is the next molecule: CCc1cc(CC)n2nc(-c3ccc(OC)cc3)c(CC(=O)N(C)c3ccccc3)c2n1
Output: label 0
